The origin of these recorded values is the METLIN SMRT retention time set (Domingo-Almenara et al. 2019).

assay: gradient 5% acetonitrile 3 min, to 50% in 2 min, to 85% in 15 min, held 3 min, 100 µL/min; details: column: Zorbax Extend-C18 2.1 x 50 mm; eluents: water / acetonitrile, 0.1% formic acid
Please use the following RP-LC retention time ranges when assigning a class: group 1 = under 700 s, group 2 = from 700 s up to 900 s, group 3 = 900 s and over

Compound: COc1ccc(CNC(=O)C2(C)CCN(C(=O)Nc3cc(OC)c(OC)c(OC)c3)CC2)cc1
Assigned category: group 2
--
Compound: CCCn1cc(C(=O)Nc2cccc(OC)c2)c(=O)c2ccc(C)nc21
Assigned category: group 3
--
Compound: Cc1ccccc1NC(=O)N1CCCC1c1nc(-c2ccc(F)cc2F)no1 (centres undefined)
Assigned category: group 3
--
Compound: O=C(Nc1ccc2c(c1)OCO2)C1CCCN(c2ncnc3c2nc2n3CCCCC2)C1 (centres undefined)
Assigned category: group 2
--
Compound: N#Cc1ccc(NC(=O)Cn2cccc(-c3nc(-c4ccc(Cl)cc4)no3)c2=O)cc1
Assigned category: group 3
--
Compound: O=C(c1ccc2cc[nH]c2c1)N1CCN(C(=O)c2cc(-c3ccncc3)n[nH]2)CC1
Assigned category: group 1
--
Compound: O=C(c1cc(-c2ccncc2)n[nH]1)N1CCN(C(=O)c2cc3ccccc3[nH]2)CC1
Assigned category: group 1
--
Compound: O=C(Nc1c(F)cccc1F)N1CC(c2nc(C3CC3)no2)C1
Assigned category: group 1
